- Assay details: Primary qHTS for delayed death inhibitors of the malarial parasite plastid, 48 hour incubation
- Reported conditions: P. falciparum luciferase growth in erythrocytes; series mostly up to 28.7 µM
In all, about 310,000 compounds went through this assay and about 18,000 (5.8%) were called active. Another 22% or so got no clear call; they are omitted. The call rests on the fitted dose curve; in most records, active means well fitted inhibition curve with a large enough effect; inconclusive means small, poorly fitted or top-dose-only effect, or another doubt; inactive means no such curve, though single readings can be large or run the other way. Shown is part of a subset that was picked to be rich in actives.
API: response.call in active, inactive

Test call, this molecule: CC(C)c1c(C(=O)N/N=C/c2ccccc2C(=O)O)nnn1-c1nonc1N inactive

# repeat for O=C(c1cccc(S(=O)(=O)N2CCOCC2)c1)N1CCOCC1 inactive

# repeat for COC(=O)Cc1ccc(Oc2ncc(C(F)(F)F)cc2Cl)cc1 inactive

# repeat for CCOc1ccc(S(=O)(=O)Nc2ccc(OC)nc2)cc1 inactive

# repeat for CCOc1ccc(S(=O)(=O)Nc2cccc(C(=O)NCC3(N4CCCCC4)CCCCC3)c2)cc1 active

# repeat for O=C(NCC1(N2CCCCC2)CCCCC1)c1ccc(NS(=O)(=O)c2ccc(F)cc2)cc1 active

# repeat for CCn1c(SC(C)C(=O)Nc2ccc(N3CCOCC3)cc2)nnc1-c1ccco1 (stereo not given) inactive

###

- Assay details: Primary qHTS for delayed death inhibitors of the malarial parasite plastid, 48 hour incubation
- Reported conditions: P. falciparum luciferase growth in erythrocytes; series mostly up to 28.7 µM
Hit rate of the full screen: of about 310,000 compounds, about 18,000 (5.8%) were called active. Inconclusive results (about 22%) are left out. Calls follow the shape of the dose curve; as a rule, active = well fitted inhibition curve with a large enough effect; inconclusive = small, poorly fitted or top-dose-only effect, or another doubt; inactive = no such curve, though single readings can be large or run the other way. The entries come from a sample that favours actives as a whole.
API: response.call in yes (active), no (inactive)

Use these answered entries as a reference point.
Compound	Group label
O=C(Cc1ccc2c(c1)CCCC2)Nc1ccccc1Cl	yes
O=C(Nc1ccc2c(c1)CCC2)c1cccc(S(=O)(=O)Nc2ccccc2Cl)c1	no
O=S(=O)(Nc1cccc(-c2ccc(N3CCOCC3)nn2)c1)c1ccc(Cl)c(Cl)c1	no
CSCCC(NC(=O)c1ccco1)C(=O)NCCc1ccc(F)cc1 (stereo unspecified)	no

Test call, this compound: CC(CCc1ccccc1)NCC(O)c1cccc([N+](=O)[O-])c1 (stereo unspecified) yes

# repeat for O=C(COC(=O)c1cccs1)NCc1cccs1 no

# repeat for Cc1c(CN2CCC(n3nccc3NC(=O)CCc3ccccc3)CC2)cnn1C no

# repeat for O=C(Cn1c(-c2ccccn2)nc2ccccc21)NCCN1CCOCC1 no

# repeat for Cn1c(CCc2ccccc2)nnc1SCC(N)=O no

# repeat for c1ccc2cc3c(NCCN4CCOCC4)ccnc3cc2c1 yes

# repeat for CC(C)OP(=O)(OC(C)C)C(Nc1ccccc1)c1cccc([N+](=O)[O-])c1 (stereo unspecified) no

###

- Assay details: Primary qHTS for delayed death inhibitors of the malarial parasite plastid, 48 hour incubation; further: potency means the concentration at half of the fitted maximal effect
- Reported conditions: P. falciparum luciferase growth in erythrocytes; series mostly up to 28.7 µM
- Source text: The goal of this screen is to discover new antimalarial compounds that act by inhibiting the development of the apicoplast in the malarial parasite Plasmodium falciparum. […] We have developed a cell-based assay that measures parasite growth based on the expression of an integrated copy of a firefly luciferase reporter. […] Growth inhibition is detected by a decrease in luciferase activity. […]
Among all 310,000 compounds or so, about 18,000 (5.8%) were called active. Another 22% or so got no clear call; they are omitted. This is one part of a sample in which actives are shown more often than they occur.
Test readout: Potency

Compound	Potency
CCC(C)C(N=C1NS(=O)(=O)c2ccccc21)C(=O)N1CCC(C)CC1 (stereo not given)	inactive
COc1cc(C(=O)N2CCN(C3CCC(C)CC3)CC2)cc(OC)c1OC (stereo not given)	inactive
COc1ccc(C2=NS(=O)(=O)N(C)C(C(=O)N3CCCCC3)=C2)cc1	inactive
CC1=CC(C)(C)Nc2ccc(OC(=O)C(Cc3ccccc3)N3C(=O)C4CCCCC4C3=O)cc21 (stereo not given)	13.1 µM (active)
CC(OC(=O)CN1C(=O)C2CCCCC2C1=O)C(=O)Nc1ncc(Cl)cc1Cl (stereo not given)	inactive
CC1=CC(C)(C)Nc2ccc(OC(=O)CN3C(=O)C4CCCCC4C3=O)cc21 (stereo not given)	10.4 µM (active)
Cc1ccc(C)n1C(Cc1ccccc1)C(=O)O (stereo not given)	inactive
COCCCC1CCN(C(=O)C2CCC(=O)N(C3CCCCCC3)C2)CC1 (stereo not given)	inactive

For each of the compounds below, state Potency.
1. Cn1c(=O)oc2cc(S(=O)(=O)NCCC(=O)NCc3ccccc3Cl)ccc21
2. COc1ccc(NC(=O)C2=CC(c3ccc(OC)c(OC)c3)=NS(=O)(=O)N2C)cc1

1: inactive; 2: 14.7 µM (active)
